# systemUnderTest: BRD8(1) (Homo sapiens)
# Construct: T7 phage strains displaying bromodomains were grown in parallel
# Sequence (Q9H0E9 706-811 limits assumed): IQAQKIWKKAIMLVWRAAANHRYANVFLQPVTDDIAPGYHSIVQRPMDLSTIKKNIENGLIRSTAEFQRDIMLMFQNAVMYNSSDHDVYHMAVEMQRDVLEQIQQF
# protocolNotes: BromoKdMAX (BROMOscan, DiscoverX)
endpointLabel: Kd

## Task Item under review: "COc1cncc(-c2cc(Nc3cccc(F)c3)nc([C@@H]3CC[C@H](C)N(C(C)=O)C3)n2)c1" . Reported Kd?
## Result > 10 µM

###

# systemUnderTest: BRPF1 (Homo sapiens)
# Construct: T7 phage strains displaying bromodomains were grown in parallel
# Sequence (P55201 628-732 limits assumed): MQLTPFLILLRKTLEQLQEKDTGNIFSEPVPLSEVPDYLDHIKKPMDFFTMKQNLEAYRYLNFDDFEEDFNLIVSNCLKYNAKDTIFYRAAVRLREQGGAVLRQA
# protocolNotes: BromoKdMAX (BROMOscan, DiscoverX)
# Method: A BromoKdMAX was performed at DiscoverX. BROMOscan™ is a novel industry leading platform for identifying small molecule bromodomain inhibitors. Based on proven KINOMEscan™ technology, BROMOscan™ employs a proprietary ligand binding site-directed competition assay to quantitatively measure interactions between test compounds and bromodomains. […]
endpointLabel: Kd

## Task Hello, I am looking for reported Kd with BRPF1 (Homo sapiens) for COc1cncc(-c2cc(Nc3cccc(F)c3)nc([C@@H]3CC[C@H](C)N(C(C)=O)C3)n2)c1 [Compound 00004] . Could you help?
## Result > 10 µM

###

# System: A375 cells
# protocolNotes: Assay 1: A375 cells treated with S1152, S1008 and compound, immunofluorescence (sc-365823) signal
# Format: cell-based
# runParameters: 1 μM S1152 + 0.5 μM S1008, one day
EC50 overview

compound="CC(=O)N1C[C@H](c2nc(Nc3ccc4oc(C)nc4c3)cc(-c3cccnc3)n2)CC[C@@H]1C [Compound 00147]" recordedresult="< 200 nM"
compound="CC(=O)N1C[C@H](c2nc(Nc3ccc4c(=O)[nH]ccc4c3)cc(-c3cccnc3)n2)CC[C@@H]1C [Compound 00035]" recordedresult="< 200 nM"
compound="CC(=O)N1C[C@H](c2nc(Nc3ccc4nc[nH]c4c3)cc(-c3cccnc3)n2)CC[C@@H]1C [Compound 00032]" recordedresult="200 to 1000 nM"
compound="CC(=O)N1C[C@H](c2nc(Nc3cc(C)nc(-c4cnn(C)c4)c3)cc(-c3cnccn3)n2)CC[C@@H]1C [Compound 00154]" recordedresult="< 200 nM"
compound="COc1cc(Nc2cc(-c3cnccn3)nc([C@@H]3CC[C@H](C)N(C(C)=O)C3)n2)cc(C)n1 [Compound 00150]" recordedresult="< 200 nM"

## Task I'd like to know its EC50. The compound in question is CC(=O)N1C[C@H](c2nc(Nc3ccc4ncncc4c3)cc(-c3cccnc3)n2)CC[C@@H]1C [Compound 00121]
## Result < 200 nM

## Task Please look up its EC50: CC(=O)N1C[C@H](c2nc(Nc3cc(-c4cnn(C)c4)cc(C(F)F)c3)cc(-c3cnccn3)n2)CC[C@@H]1C [Compound 00055]
## Result < 200 nM

###

# Test system: A375 cells
# protocolNotes: Assay 1: A375 cells treated with S1152, S1008 and compound, immunofluorescence (sc-365823) signal
# Type: cell-based
# runParameters: 1 μM S1152 + 0.5 μM S1008, one day
endpointLabel: EC50

molecule="CC(=O)N1C[C@H](c2nc(Nc3cccnc3)cc(-c3cccnc3)n2)CC[C@@H]1C (racemic)" systemundertest="A375 cells" endpointlabel=EC50 recordedresult="200 to 1000 nM"
molecule=CC(=O)N1C[C@H](c2nc(Nc3ccnc(C)c3)cc(-c3cncc(N4CCCC4=O)c3)n2)CC[C@@H]1C systemundertest="A375 cells" endpointlabel=EC50 recordedresult="200 to 1000 nM"

## Task For the molecule "CC(=O)N1C[C@H](c2nc(Nc3cccc(-c4ncn(C)n4)c3)cc(-c3cccnc3)n2)CC[C@@H]1C" , what EC50 is on record?
## Result < 200 nM

## Task Would you kindly share the measured EC50 for "[2H]C([2H])([2H])[C@H]1CC[C@@H](c2nc(Nc3cncc(C)c3)cc(-c3cnccn3)n2)CN1C(C)=O" ?
## Result < 200 nM

## Task Reported EC50, molecule "CC(=O)N1C[C@H](c2nc(Nc3cccc(C(C)(F)F)c3)cc(-c3cccnc3)n2)CC[C@@H]1C" : ____
## Result < 200 nM

## Task What measured EC50 goes with "CC(=O)N1C[C@H](c2nc(Nc3ccccc3)cc(-n3cnc(C)c3)n2)CC[C@@H]1C" ?
## Result 1000 to 10000 nM

## Task // lookup EC50 for "CC(=O)N1C[C@H](c2nc(Nc3cccc(-c4cn(C)nn4)c3)cc(-c3cccnc3)n2)CC[C@@H]1C"
## Result < 200 nM
